Biological target: unphosphorylated-BTK kinase domain (UP-BTK), GST-tagged human BTK (389-659aa) (Homo sapiens (Human), UniProt Q06187)
Sequence (Q06187 389-659): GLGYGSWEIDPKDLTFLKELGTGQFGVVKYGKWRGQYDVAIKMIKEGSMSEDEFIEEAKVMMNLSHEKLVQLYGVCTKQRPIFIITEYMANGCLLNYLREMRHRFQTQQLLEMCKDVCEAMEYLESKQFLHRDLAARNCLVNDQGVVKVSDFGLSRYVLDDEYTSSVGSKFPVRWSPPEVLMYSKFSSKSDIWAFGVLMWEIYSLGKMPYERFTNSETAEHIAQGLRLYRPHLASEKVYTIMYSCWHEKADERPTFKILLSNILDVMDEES
Test: BTK kinase Lanthascreen binding assay
Details: pIC50 = negative log of the IC50 in molar; 60 minutes incubation, 50 nM Tracer 236
value-kind: BTK_I_binding pIC50

> print(dat)
                                   compound  value
1  C=CC(=O)N1CCC[C@@H](NC(=O)c2sc3nccc4c3c2NC(=O)N4c2ccc(Oc3ccccc3)c(F)c2C)C1 [Example 4]    7.7
2  CCC(=O)N1CC[C@@H](NC(=O)c2sc3nccc4c3c2NC(=O)N4c2ccc(Oc3ccccc3)cc2C)C1 (single isomer, unassigned) [Example 84]    7.5
3  Cc1cc(Oc2ccccc2)ccc1N1C(=O)Nc2c(C(=O)N[C@@H]3CCCN(C(=O)CCN(C)C)C3)sc3nccc1c23 [Example 130]    7.1
4  Cc1cc(Oc2ccccc2)ccc1N1C(=O)Nc2c(C(=O)N[C@@H]3C[C@@H](O)CN(C)C3)sc3nccc1c23 [Example 168]    6.8
5  Cc1cc(Oc2ccccc2C(C)C)ccc1N1C(=O)Nc2c(C(=O)N[C@@H]3CCCN(C)C3)sc3nccc1c23 [Example 223]    6.6
6  Cc1cc(Oc2ccccc2)ccc1N1C(=O)Nc2c(C(=O)N[C@@H]3CCCN(C4CC4)C3)sc3nccc1c23 [Example 213]    6.5
7  CCNC(C)(C)/C=C(\C#N)C(=O)N1CCC[C@@H](NC(=O)c2sc3nccc4c3c2NC(=O)N4c2ccc(Oc3ccccc3)cc2C)C1 [Example 212]    7.0
8  C=CC(=O)N1CCC[C@@H](NC(=O)c2sc3nccc4c3c2NC(=O)N4c2cccc(C)c2)C1 [Example 279]    6.2
9  CCN1CCC[C@@H](NC(=O)c2sc3nccc4c3c2NC(=O)N4c2ccc(Oc3ccccc3)cc2C)C1 [Example 74]    6.9

----------
Target: unphosphorylated-BTK kinase domain (UP-BTK), GST-tagged human BTK (389-659aa) (Homo sapiens (Human), UniProt Q06187)
Assay: BTK kinase Lanthascreen binding assay
Details: unphosphorylated-BTK kinase domain, 50 nM Tracer 236, 60 minutes; pIC50 = negative log of the IC50 in molar
value-kind: BTK_I_binding pIC50

molecule	value
C=CC(=O)N1CCC[C@@H](NC(=O)c2sc3nccc4c3c2NC(=O)N4c2ccc(OC3CCC3)cc2C)C1 [Example 456]	7.7
Cc1cc(Oc2ccccc2)ccc1N1C(=O)Nc2c(C(=O)NC3(CO)CCOCC3)sc3nccc1c23 [Example 437]	5.8
C=CC(=O)N1CC[C@@H](NC(=O)c2sc3nccc4c3c2NC(=O)N4c2ccc(C(C)C)cc2C)C1 [Example 445]	6.7
Cc1cc(Oc2ccccc2)ccc1N1C(=O)Nc2c(C(=O)N[C@@H]3CCCN(C(=O)C(=CC4CC4)C(F)(F)F)C3)sc3nccc1c23 (mixture of isomers) [Example 313]	5.9
CCC(=O)N1CC[C@@H](NC(=O)c2sc3nccc4c3c2NC(=O)N4c2ccc(Oc3ccccc3)cc2C)C1 (single isomer, unassigned) [Example 325]	5.7
C=CC(=O)N1CCC[C@@H](NC(=O)c2sc3nccc4c3c2NC(=O)N4c2cccc(-c3cccc(Cl)c3)c2)C1 [Example 507]	7.8
C=CC(=O)N1CCC[C@@H](NC(=O)c2sc3nccc4c3c2NC(=O)N4c2cnc(Oc3ccccc3)nc2)C1 [Example 556]	7.5
Cc1cc(Oc2ccccc2)ccc1N1C(=O)Nc2c(C(=O)N[C@H]3CNC(=O)C3)sc3nccc1c23 (single isomer, unassigned) [Example 471]	5.9

----------
Biological target: unphosphorylated-BTK kinase domain (UP-BTK), GST-tagged human BTK (389-659aa) (Homo sapiens (Human), UniProt Q06187)
Assay: BTK kinase Lanthascreen binding assay
Conditions: unphosphorylated-BTK kinase domain, 50 nM Tracer 236, 60 minutes; pIC50 = negative log of the IC50 in molar
value-kind: BTK_I_binding pIC50

> print(dat)
                                   compound  value
1  C=CC(=O)N1CCC[C@@H](NC(=O)c2sc3nccc4c3c2NC(=O)N4c2cccc(-c3ccccn3)c2)C1    7.2
2  CN1CCC[C@@H](NC(=O)c2sc3nccc4c3c2NC(=O)N4c2cccc(-c3ccccc3)c2)C1    6.8
3  Cc1cc(Oc2ccccc2)ccc1N1C(=O)Nc2c(C(=O)N[C@@H]3CCCN(C(C)C)C3)sc3nccc1c23 (single isomer, unassigned)    7.2
4  CCS(=O)(=O)N1CCC[C@@H](NC(=O)c2sc3nccc4c3c2NC(=O)N4c2ccc(Oc3ccccc3)cc2C)C1 (single isomer, unassigned)    7.2
5  CNCC(=O)N1CC[C@@H](NC(=O)c2sc3nccc4c3c2NC(=O)N4c2ccc(Oc3ccccc3)cc2C)C1    7.2
6  O=C(N[C@@H]1CCNC1)c1sc2nccc3c2c1NC(=O)N3c1ccc(Oc2ccccc2)c(Cl)c1    7.2
7  CO[C@@H]1CNC[C@H](NC(=O)c2sc3nccc4c3c2NC(=O)N4c2ccc(Oc3ccccc3)cc2C)C1 (relative stereo) [Example 467]    7.0

----------
// BTK_I_binding pIC50 lookup, one value per entry
Molecular target: unphosphorylated-BTK kinase domain (UP-BTK), GST-tagged human BTK (389-659aa) (Homo sapiens (Human))
Assay: BTK kinase Lanthascreen binding assay
Details: unphosphorylated-BTK kinase domain, 50 nM Tracer 236, 60 minutes; pIC50 = negative log of the IC50 in molar

The following compounds have reported results that may help.
> print(dat)
                      smiles.representation  value
1  CN1CCC[C@@H](NC(=O)c2sc3nccc4c3c2NC(=O)N4c2ccc(Oc3ccccc3)cc2C(F)(F)F)C1     <5
2  Cc1ncccc1N1C(=O)Nc2c(C(=O)N[C@@H]3CCCNC3)sc3nccc1c23     <5

Attention now shifts to the item below.
Ask: Any idea what its BTK_I_binding pIC50 is? The compound is `CN1CCC[C@@H](NC(=O)c2sc3nccc4c3c2NC(=O)N4Cc2ccc(Oc3ccccc3)cc2)C1`
Reply: <5

Reference source for all entries: patent US10800792B2
